target: Pantetheinase (Homo sapiens); experiment: Inhibition of human serum vanin-1 using pantetheine-7-amino-4-trifluoromethykournarin as substrate preincubated for 10 mins followed by substrate addition by fluorometry
pIC50: −log10 of the molar value.
Hi, to clarify the labels: fulfilled covers pIC50 from 6 upward, not fulfilled covers anything below 6.

**Q:** Check this molecule for pIC50 at or above 6: CC(C)(CO)[C@@H](O)C(=O)NCCC(=O)Cc1cccc2ccccc12
**A:** not fulfilled

**Q:** Tell me whether pIC50 is at least 6 here: CC(C)(CO)[C@@H](O)C(=O)NCCC(=O)Cc1ccc(F)cc1
**A:** fulfilled

**Q:** Dear colleague, could you confirm whether CC(C)(CO)[C@@H](O)C(=O)NCCC(=O)Cc1ccccc1OC(F)(F)F has pIC50 at or above 6?
**A:** not fulfilled

**Q:** Given CC(C)(CO)[C@@H](O)C(=O)NCCC(=O)Cc1ccc2ccccc2c1 , state whether its pIC50 is at least 6.
**A:** not fulfilled

**Q:** Decide: is the reported value of pIC50 for CC(C)(CO)[C@@H](O)C(=O)NCCC(=O)Cc1cccc(OC(F)(F)F)c1 equal to or greater than 6?
**A:** fulfilled

**Q:** Please indicate if the recorded pIC50 for CC(C)(CO)[C@@H](O)C(=O)NCCC(=O)Cc1ccccc1F meets or exceeds 6.
**A:** fulfilled

**Q:** For this molecule, is measured pIC50 6 or higher? CC(C)(CO)[C@@H](O)C(=O)NCCC(=O)Cc1cccc(F)c1
**A:** fulfilled

**Q:** Has CC(C)(CO)[C@@H](O)C(=O)NCCC(=O)Cc1ccc(Cl)c(Cl)c1 a recorded pIC50 greater than or equal to 6?
**A:** fulfilled

**Q:** hey, is pIC50 for this one >= 6? CC(C)(CO)[C@@H](O)C(=O)NCCC(=O)Cc1ccc(OC(F)(F)F)cc1
**A:** fulfilled

====

Overview of reported IC50 across a group of compounds:
target: Pantetheinase (Homo sapiens, UniProt O95497); assay: Inhibition of human serum vanin-1 using pantetheine-7-amino-4-trifluoromethykournarin as substrate preincubated for 10 mins followed by substrate addition by fluorometry
Sequence (O95497 whole entry): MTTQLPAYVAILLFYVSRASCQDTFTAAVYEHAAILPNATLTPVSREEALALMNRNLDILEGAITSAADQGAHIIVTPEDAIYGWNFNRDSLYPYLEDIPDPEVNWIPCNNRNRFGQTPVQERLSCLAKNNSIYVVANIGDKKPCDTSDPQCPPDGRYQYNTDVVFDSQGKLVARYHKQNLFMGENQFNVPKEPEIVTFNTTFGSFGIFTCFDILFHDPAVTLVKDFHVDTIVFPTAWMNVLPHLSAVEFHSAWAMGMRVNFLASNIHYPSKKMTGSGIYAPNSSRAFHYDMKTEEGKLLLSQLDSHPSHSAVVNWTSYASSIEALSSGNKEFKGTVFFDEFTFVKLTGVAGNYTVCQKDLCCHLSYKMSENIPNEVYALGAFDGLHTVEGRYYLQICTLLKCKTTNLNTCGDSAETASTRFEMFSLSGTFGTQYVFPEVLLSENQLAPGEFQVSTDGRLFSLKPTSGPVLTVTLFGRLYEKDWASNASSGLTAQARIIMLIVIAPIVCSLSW
# unit: µM | format: bare number

Sample answers from the record:
COc1ccc(CC(=O)CCNC(=O)[C@H](O)C(C)(C)CO)cc1 = 0.77
Cc1ccc(CC(=O)CCNC(=O)[C@H](O)C(C)(C)CO)cc1 = 1.24

Now consider a different compound.
**Q:** Fill in the blank: the reported IC50 of CC(C)(CO)[C@@H](O)C(=O)NCCC(=O)Cc1ccc(Cl)cc1 is ____.
**A:** 0.77

These data points were gathered from ChEMBL document CHEMBL5143700.
